assayed-target: HLA-A*03:01
assay-procedure: IEDB peptide-MHC binding, purified MHC/competitive/radioactivity; filed as Kd, often an IC50 or EC50 that approximates it; bounds were set here for any values at or beyond the usual limits of such assays
measurement-setup: source organism: Homo sapiens
measured-endpoint: Kd

construct_sequence=QLRSLTEILK test_result="55 nM"

----------
assayed-target: HLA-B*57:01
assay-procedure: IEDB peptide-MHC binding, purified MHC/direct/fluorescence; filed as Kd, often an IC50 or EC50 that approximates it; bounds were set here for any values at or beyond the usual limits of such assays
measurement-setup: source organism: Toxoplasma gondii
pKd: −log10 of the molar value.
measured-endpoint: pKd

construct_sequence=LPPVVPPLI test_result="≤ 4.70"

Source listed as the Immune Epitope Database (IEDB).
